# Tgt: recombinant PfPKG (Plasmodium falciparum)
# Sequence (Q8I719 whole entry): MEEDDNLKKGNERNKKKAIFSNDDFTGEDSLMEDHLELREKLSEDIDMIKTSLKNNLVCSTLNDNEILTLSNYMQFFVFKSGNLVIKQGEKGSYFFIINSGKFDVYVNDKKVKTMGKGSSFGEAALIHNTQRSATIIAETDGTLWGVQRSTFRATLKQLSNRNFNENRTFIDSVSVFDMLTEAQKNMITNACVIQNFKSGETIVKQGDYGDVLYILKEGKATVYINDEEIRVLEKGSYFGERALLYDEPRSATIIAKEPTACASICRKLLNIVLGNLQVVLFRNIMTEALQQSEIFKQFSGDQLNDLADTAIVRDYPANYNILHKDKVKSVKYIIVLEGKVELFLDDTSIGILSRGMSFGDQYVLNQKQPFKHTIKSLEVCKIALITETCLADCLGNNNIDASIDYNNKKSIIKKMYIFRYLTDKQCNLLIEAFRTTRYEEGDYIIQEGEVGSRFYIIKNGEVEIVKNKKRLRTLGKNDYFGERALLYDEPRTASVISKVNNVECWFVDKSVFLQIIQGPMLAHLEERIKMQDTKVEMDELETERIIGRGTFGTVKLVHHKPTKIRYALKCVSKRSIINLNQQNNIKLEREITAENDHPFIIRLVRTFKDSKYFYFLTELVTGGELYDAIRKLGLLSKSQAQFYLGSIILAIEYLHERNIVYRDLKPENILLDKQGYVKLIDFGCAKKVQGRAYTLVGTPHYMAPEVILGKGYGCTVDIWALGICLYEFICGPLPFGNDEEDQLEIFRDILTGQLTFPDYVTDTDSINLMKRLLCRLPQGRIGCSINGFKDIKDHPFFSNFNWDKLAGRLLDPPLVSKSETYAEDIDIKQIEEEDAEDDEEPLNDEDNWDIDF
# Protocol Details: biochemical
Metric Name: pIC50
The read-out pIC50 is expressed as -log10 of concentration in moles per litre.

Return reported pIC50; argument: `CCOc1ccc2cc(-c3nn(C(C)(C)C)c(N)c3C(N)=O)ccc2c1`
5.63

* * *

# Tgt: recombinant PfCDPK4 (Plasmodium falciparum, UniProt Q8IBS5)
# Sequence (Q8IBS5 whole entry): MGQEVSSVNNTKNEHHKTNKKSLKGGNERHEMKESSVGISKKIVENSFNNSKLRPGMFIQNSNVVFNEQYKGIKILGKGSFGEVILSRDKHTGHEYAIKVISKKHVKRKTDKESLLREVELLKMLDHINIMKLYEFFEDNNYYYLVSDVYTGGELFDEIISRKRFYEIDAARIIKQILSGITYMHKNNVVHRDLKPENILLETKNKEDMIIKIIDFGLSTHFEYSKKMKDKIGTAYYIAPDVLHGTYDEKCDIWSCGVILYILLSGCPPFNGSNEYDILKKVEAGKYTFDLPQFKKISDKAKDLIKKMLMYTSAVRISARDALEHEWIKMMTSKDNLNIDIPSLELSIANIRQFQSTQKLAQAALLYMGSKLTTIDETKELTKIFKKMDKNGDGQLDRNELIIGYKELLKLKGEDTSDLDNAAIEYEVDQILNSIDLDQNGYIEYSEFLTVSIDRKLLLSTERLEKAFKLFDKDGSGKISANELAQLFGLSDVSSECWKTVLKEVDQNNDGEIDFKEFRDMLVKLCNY
# Protocol Details: biochemical
Metric Name: pIC50
Schema: pIC50 number; meaning minus log10 of the concentration expressed in molar units.

Find pIC50 (recombinant PfCDPK4 (Plasmodium falciparum, UniProt Q8IBS5)) for the entry CCOc1ccc2cc(-c3nn(C4CCOC4)c(N)c3C(N)=O)ccc2n1 (stereo not shown) [Compound 25]
6.99
